experiment: Acute toxicity (LD50, Litchfield and Wilcoxon); settings: mouse, in vivo, po; NMRI mice of both sexes, peroral, 7 days observation; "higher than" = highest dose administered without any death
Assay Readout: LD50 at 168 h

Answered cases to consult:
CCCCCCNCC(O)CO/N=C1\CCCC\C1=C/c1ccccc1 (racemic) : > 1000 mg/kg
CN(C)CC(O)CO/N=C1\CCCC\C1=C/c1ccc(Cl)cc1 (racemic) : > 1000 mg/kg
CN(CC(O)CO/N=C1\CCCC\C1=C/c1ccc(Cl)cc1)C1CCCCC1 (racemic) : > 1000 mg/kg
OC(CNC1CCCCC1)CO/N=C1\CCCC\C1=C/c1ccc(Cl)cc1 (racemic) : > 1000 mg/kg
CCCCCCNCC(O)CO/N=C1\CCCC\C1=C/c1ccc(Cl)cc1 (racemic) : > 1000 mg/kg

Consider the record given below.
**Query** Sample CC(C)N(CC(O)CO/N=C1\CCCC\C1=C/c1ccc(Br)cc1)C(C)C (racemic) — what was its LD50 at 168 h?
**Result** 1000 mg/kg

* * *

test: Acute toxicity (LD50, Litchfield and Wilcoxon); details: mouse, in vivo, po; NMRI mice of both sexes, peroral, 7 days observation; "higher than" = highest dose administered without any death
Assay Readout: LD50 at 7 days

NC[C@H]1CC[C@H](C(=O)Oc2ccc(CCC(=O)O)cc2)CC1 [cetraxate, reference compound] : > 1000 mg/kg

**Query** Sample COc1ccc2[nH]c([S+]([O-])Cc3ncc(C)c(OC)c3C)nc2c1 (centres unmarked) [omeprazole, reference compound] — what was its LD50 at 7 days?
**Result** > 4000 mg/kg
